Tested on: chick embryo vitelline capillaries
assay-text: chick embryo vitelline capillary regression assay
Format: in vivo
Set-up: key: +: Vascular reactivity; 0: No vascular reactivity; +/-: Equivocal reactivity
settings: 0.1 μg applied; 60 minutes
outcome-measure: vitelline capillary regression

C[C@H](CCC(=O)O)[C@H]1CC[C@H]2[C@@H]3[C@H](O)C[C@H]4C[C@H](NCCCNCCCCN)CC[C@]4(C)[C@H]3CC[C@]12C    0
CC(C)CCC[C@@H](C)[C@H]1CC[C@H]2[C@@H]3[C@H](O)C[C@H]4C[C@@H](NCCCNCCCCN)CC[C@]4(C)[C@H]3CC[C@]12C    0
C[C@H](CCC(=O)O)[C@H]1CC[C@H]2[C@@H]3[C@H](O)C[C@@H]4C[C@@H](NCCN)CC[C@]4(C)[C@H]3CC[C@]12C    +
CC(C)[C@@H](CC[C@@H](C)[C@H]1CC[C@H]2[C@@H]3[C@H](O)C[C@H]4C[C@@H](NCCCNCCCCNCCCN)CC[C@]4(C)[C@H]3CC[C@]12C)OS(=O)(=O)O    +

---

Tested on: P. aerug
Threshold 60 µg/mL: MIC strictly smaller gives MET, otherwise NOT MET.

Query: Is the reported MIC for COC(=O)CCC(C)[C@H]1CCC2C3CC[C@@H]4C[C@H](NCCCNCCCCNCCCN)CC[C@]4(C)C3C[C@H](O)[C@@]21C (stereo partly shown) strictly below 60 µg/mL?
Response: MET

Query: Is the reported MIC for COC(=O)CCC(C)[C@H]1CCC2C3C[C@@H](O)[C@H]4C[C@H](NCCCNCCCCNCCCN)CC[C@]4(C)C3CC[C@@]21C (stereo partly shown) strictly below 60 µg/mL?
Response: NOT MET

Query: Is the reported MIC for COC(=O)CCC(C)[C@H]1CCC2C3C[C@@H](O)[C@H]4C[C@@H](NCCN)CC[C@]4(C)C3CC[C@@]21C (stereo partly shown) strictly below 60 µg/mL?
Response: NOT MET

Query: Is the reported MIC for CC(CCC(=O)O)[C@H]1CCC2C3C(CC[C@@]21C)[C@@]1(C)CC[C@H](NCCN)C[C@H]1C[C@H]3O (stereo partly shown) strictly below 60 µg/mL?
Response: NOT MET

Query: Is the reported MIC for CC(CCC(=O)O)[C@H]1CCC2C3CC[C@@H]4C[C@H](NCCN)CC[C@]4(C)C3C[C@H](O)[C@@]21C (stereo partly shown) strictly below 60 µg/mL?
Response: NOT MET

Query: Is the reported MIC for COC(=O)CCC(C)[C@H]1CCC2C3CC[C@H]4C[C@@H](NCCCNCCCCNCCCN)CC[C@]4(C)C3CC[C@@]21C (stereo partly shown) strictly below 60 µg/mL?
Response: NOT MET

Query: Is the reported MIC for COC(=O)CCC(C)[C@H]1CCC2C3C[C@@H](O)[C@H]4C[C@@H](NCCCNCCCCNCCCN)CC[C@]4(C)C3CC[C@@]21C (stereo partly shown) strictly below 60 µg/mL?
Response: MET

---

System: chick embryo vitelline capillaries
assay-text: chick embryo vitelline capillary regression assay
Format: in vivo
Parameters: key: +: Vascular reactivity; 0: No vascular reactivity; +/-: Equivocal reactivity
settings: 0.1 μg applied; 60 minutes
outcome-measure: vitelline capillary regression
// keep it numeric: no unit symbol after the value

Query: Determine from records and report vitelline capillary regression for CC(C)CCC[C@@H](C)[C@H]1CC[C@H]2[C@@H]3[C@H](O)C[C@H]4C[C@@H](N)CC[C@]4(C)[C@H]3CC[C@]12C [Compound 1364]
Response: 0

Query: Determine from records and report vitelline capillary regression for C[C@H](CCC(=O)O)[C@H]1CC[C@H]2[C@@H]3[C@H](O)C[C@@H]4C[C@H](NCCCNCCCCNCCCN)CC[C@]4(C)[C@H]3CC[C@]12C [Compound 412]
Response: 0

---

System: P. aerug
Hi there, I'd appreciate the recorded MIC for every entry that follows.
Express your answer in µg/mL, writing the number without its unit.

Query: Determine from records and report MIC for CC(CCC(=O)O)[C@H]1CCC2C3CC[C@@H]4C[C@H](NCCCNCCCCNCCCN)CC[C@]4(C)C3C[C@H](O)[C@@]21C (stereo partly shown)
Response: 4

Query: Determine from records and report MIC for CC(CCC(=O)O)[C@H]1CCC2C3C[C@@H](O)[C@H]4C[C@@H](NCCN)CC[C@]4(C)C3CC[C@@]21C (stereo partly shown)
Response: 128

Query: Determine from records and report MIC for CC(CCC(=O)O)[C@H]1CCC2C3C[C@@H](O)[C@H]4C[C@@H](NCCCNCCCCNCCCN)CC[C@]4(C)C3CC[C@@]21C (stereo partly shown)
Response: 8

Query: Determine from records and report MIC for CC(C)CCCC(C)[C@H]1CCC2C3C(CC[C@@]21C)[C@@]1(C)CC[C@@H](NCCCNCCCCN)C[C@@H]1C[C@H]3O (stereo partly shown)
Response: 64

Query: Determine from records and report MIC for CC(C)CCCC(C)[C@H]1CCC2C3C(CC[C@@]21C)[C@@]1(C)CC[C@H](NCCCNCCCCN)C[C@@H]1C[C@H]3O (stereo partly shown)
Response: 64

Query: Determine from records and report MIC for COC(=O)CCC(C)[C@H]1CCC2C3C(CC[C@@]21C)[C@@]1(C)CC[C@H](NCCN)C[C@H]1C[C@H]3O (stereo partly shown)
Response: 128

Query: Determine from records and report MIC for COC(=O)CCC(C)[C@H]1CCC2C3C(CC[C@@]21C)[C@@]1(C)CC[C@H](NCCCNCCCCNCCCN)C[C@H]1C[C@H]3O (stereo partly shown)
Response: 64

Query: Determine from records and report MIC for COC(=O)CCC(C)[C@H]1CCC2C3C[C@@H](O)[C@H]4C[C@H](NCCN)CC[C@]4(C)C3CC[C@@]21C (stereo partly shown)
Response: 128

Query: Determine from records and report MIC for COC(=O)CCC(C)[C@H]1CCC2C3CC[C@H]4C[C@H](NCCCNCCCCNCCCN)CC[C@]4(C)C3CC[C@@]21C (stereo partly shown) [drawing 74]
Response: 64

Query: Determine from records and report MIC for CC(CCC(=O)O)[C@H]1CCC2C3C(CC[C@@]21C)[C@@]1(C)CC[C@@H](NCCCNCCCCNCCCN)C[C@H]1C[C@H]3O (stereo partly shown)
Response: 8

Query: Determine from records and report MIC for CC(CCC(=O)O)[C@H]1CCC2C3C(CC[C@@]21C)[C@@]1(C)CC[C@@H](NCCN)C[C@H]1C[C@H]3O (stereo partly shown)
Response: 64

Query: Determine from records and report MIC for CC(COS(=O)(=O)O)C(=O)CC[C@@H](C)[C@H]1CC[C@H]2[C@@H]3[C@H](O)C[C@H]4C[C@@H](NCCCNCCCCN)CC[C@]4(C)[C@H]3CC[C@]12C (stereo partly shown)
Response: 128

---

System: chick embryo vitelline capillaries
assay-text: chick embryo vitelline capillary regression assay
Assay type: in vivo
Design: key: +: Vascular reactivity; 0: No vascular reactivity; +/-: Equivocal reactivity
settings: 0.1 μg applied; 60 minutes
Description: Using the chick embryo vitelline capillaries assay, compounds were tested for their ability to induce capillary regression. Each compound was applied in 0.1 ml of 15% Ficol 400 and PBS onto the embryo, and vascular regression was assessed after 60 minutes. The 3-day chick embryo consists of an embryonic disc from which numerous vessels emerge and return, forming a "figure 8"-shaped structure--the embryo in the center with vascular loops extending outward over both poles. […]
outcome-measure: vitelline capillary regression

CC(C)[C@@H](CC[C@@H](C)[C@H]1CC[C@H]2[C@@H]3[C@H](O)C[C@H]4C[C@@H](NCCCNCCCCN)CC[C@]4(C)[C@H]3CC[C@]12C)OS(=O)(=O)O    +
COC(=O)CC[C@@H](C)[C@H]1CC[C@H]2[C@@H]3[C@H](O)C[C@@H]4C[C@H](NCCN)CC[C@]4(C)[C@H]3CC[C@]12C    +/-
C[C@H](CCC(=O)O)[C@H]1CC[C@H]2[C@@H]3CC[C@H]4C[C@@H](NCCCNCCCCN)CC[C@]4(C)[C@H]3CC[C@]12C    +

---

outcome-measure: MIC

Query: Quote MIC with test system P. aerug for CC(C)CCC[C@@H](C)[C@H]1CC[C@H]2[C@@H]3CC[C@H]4C[C@@H](NCCCCN)CC[C@]4(C)[C@H]3CC[C@]12C
Response: > 256 µg/mL

Query: Quote MIC with test system P. aerug for CC(C)CCCC(C)[C@H]1CCC2C3C(CC[C@@]21C)[C@@]1(C)CC[C@H](N)C[C@@H]1C[C@H]3O (stereo partly shown)
Response: > 256 µg/mL

Query: Quote MIC with test system P. aerug for CC(C)CCC[C@@H](C)[C@H]1CC[C@H]2[C@@H]3CC[C@H]4C[C@H](NCCCCN)CC[C@]4(C)[C@H]3CC[C@]12C
Response: > 256 µg/mL

Query: Quote MIC with test system P. aerug for COC(=O)CCC(C)[C@H]1CCC2C3CC[C@@H]4C[C@H](NCCN)CC[C@]4(C)C3C[C@H](O)[C@@]21C (stereo partly shown)
Response: 16 to 32 µg/mL
